Data provenance is patent US20250052767A1.

Provide the reported MFI (of CD86 binding after antibody pre-incubation) of each item.
measurement.target: T1, human CD28 (human, UniProt P10747 19-220, On cells CD28 is a disulfide linked homodimer and a glycoprotein; one copy of the chain is given.)
T1 construct: also called T-cell specific surface glycoprotein CD28
T1 sequence (P10747 19-220 limits assumed): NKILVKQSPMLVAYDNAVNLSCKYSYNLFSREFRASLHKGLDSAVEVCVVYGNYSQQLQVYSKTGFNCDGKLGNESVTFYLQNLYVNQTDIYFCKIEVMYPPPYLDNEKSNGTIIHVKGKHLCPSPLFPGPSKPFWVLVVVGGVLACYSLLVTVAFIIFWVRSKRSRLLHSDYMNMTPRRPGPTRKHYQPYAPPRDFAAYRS
measurement.protocol: flow cytometry, Ba/F3-human CD28 cells pre-incubated with 70 ug antibody, then 1 ug biotinylated recombinant CD86 (competitor) + labelled streptavidin

Illustrative cases are given below, each with its answer.
binder	reported
exemplary anti-CD28 antibody AB7 (antibody, V domains shown, Mouse hybridoma monoclonal antibody; Conjugated to PE in the staining assays; also called antibody 7; clone 7) VH: KVQLQQSGAGLVKPGASVKLSCKASGYTFSDYIINWVKQRSGQGLEWIGWFYPGSGSINYNEKFKDKATLTADKSSSTVYMDLSRLTSEDSAVYFCARREDRGGYDAFDYWGQGTTLTVSS VL: DIQMTQSPASLSVSVGETVTITCRTSENIYSNLAWYQQKQGKSPQLLVYAATKLADGVPSRFSGSGSGTQYSLRINSLQPEDFGSYYCQHFWGTPWTFGGGTKLEIK	955
exemplary anti-CD28 antibody AB1 (antibody, V domains shown, Mouse hybridoma monoclonal antibody; also called antibody 1; clone 1) VH: QVHLQQSATELARPGASVKMSCKASGYTFTSYTMHWVKQRPGQGLEWIGYIDPGSGYSEFNHKFKDKSTLTADKSSSTAYMQLISLTSEDSAVYYCARRQDNSGYDSFDYWGQGTTLTVSS VL: DIQMTQSPASLSVSVGETVTITCRTSENIYSNLAWYQQKQGKSPQLLVYAATNLADGVSSRFSGSGSGIQYSLKINSLQSEDFGSYYCQHFWGIPWTFGGGTKLEIK	736
exemplary anti-CD28 antibody AB5 (antibody, V domains shown, Mouse hybridoma monoclonal antibody; Conjugated to PE in the staining assays; also called antibody 5; clone 5) VH: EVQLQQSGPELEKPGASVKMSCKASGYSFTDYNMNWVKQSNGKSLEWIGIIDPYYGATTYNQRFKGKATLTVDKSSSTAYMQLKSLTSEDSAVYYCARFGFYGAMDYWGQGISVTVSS VL: DVVVTQTPLSLPVSFGDQVSISCRSSQSLANSFGNTYLSWYLHKPGQSPQLLIYGISNRFSGVPDRFSGSGSGTDFTLKISTIKPEDLGVYYCLQGTHQPFTFGSGTTLELK	668

Give MFI (of CD86 binding after antibody pre-incubation) for each listed item.
1. exemplary anti-CD28 antibody AB2 (antibody, V domains shown, Mouse hybridoma monoclonal antibody; also called antibody 2; clone 2) VH: QVQLQQPGSELMRPGASVKLSCKASGYTFTSYWMHWVKQRHGQGLEWIGNIYPGSGRTIYDEKFKSKATLTVDTSSSTAYMHLSSLTSEDSAVFYCTRSHYGSSFDAMDYWGQGTSVTVSS VL: DIQVNQSPSSLSASLGDTITITCHASQNIYVWLNWYQQKPGNIPKLLIYKASNLHTGVPSRFSGSGSGTGFTLTISSLQPEDIATYYCQQGQSYPWTFGGGTKLEIK
2. exemplary anti-CD28 antibody AB8 (antibody, V domains shown, Mouse hybridoma monoclonal antibody; Conjugated to PE in the staining assays; also called antibody 8; clone 8) VH: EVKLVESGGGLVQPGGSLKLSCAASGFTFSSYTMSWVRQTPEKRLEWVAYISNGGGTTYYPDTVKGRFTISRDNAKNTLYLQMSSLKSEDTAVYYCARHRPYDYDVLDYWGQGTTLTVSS VL: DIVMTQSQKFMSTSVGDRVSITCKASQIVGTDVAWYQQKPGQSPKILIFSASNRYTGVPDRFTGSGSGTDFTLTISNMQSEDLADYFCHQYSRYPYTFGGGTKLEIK

[714, 925]

Give MFI (of CD86 binding after antibody pre-incubation) for each listed item.
1. exemplary anti-CD28 antibody AB3 (antibody, V domains shown, Mouse hybridoma monoclonal antibody; Conjugated to PE in the staining assays; also called antibody 3; clone 3) VH: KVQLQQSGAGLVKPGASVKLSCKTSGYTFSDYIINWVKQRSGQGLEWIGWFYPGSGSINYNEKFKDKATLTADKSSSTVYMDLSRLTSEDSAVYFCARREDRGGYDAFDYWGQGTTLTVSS VL: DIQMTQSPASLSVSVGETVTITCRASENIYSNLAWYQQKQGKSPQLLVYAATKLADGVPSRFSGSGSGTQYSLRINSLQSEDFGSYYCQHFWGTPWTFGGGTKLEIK
2. exemplary anti-CD28 antibody AB6 (antibody, V domains shown, Mouse hybridoma monoclonal antibody; Conjugated to PE in the staining assays; also called antibody 6; clone 6) VH: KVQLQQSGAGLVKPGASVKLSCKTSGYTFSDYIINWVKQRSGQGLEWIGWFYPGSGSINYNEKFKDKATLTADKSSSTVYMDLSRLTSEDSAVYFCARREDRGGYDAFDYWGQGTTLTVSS VL: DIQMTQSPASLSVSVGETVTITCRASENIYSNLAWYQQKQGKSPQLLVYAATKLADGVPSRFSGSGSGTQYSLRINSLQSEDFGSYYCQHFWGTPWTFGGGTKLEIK

1: 796; 2: 741

Record request: MFI (of CD86 binding after antibody pre-incubation) value, item exemplary anti-CD28 antibody AB4 (antibody, V domains shown, Mouse hybridoma monoclonal antibody; Conjugated to PE in the staining assays; also called antibody 4; clone 4) VH: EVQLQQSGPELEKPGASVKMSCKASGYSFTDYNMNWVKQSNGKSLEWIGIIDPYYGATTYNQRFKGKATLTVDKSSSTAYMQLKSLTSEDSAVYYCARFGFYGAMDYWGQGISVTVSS VL: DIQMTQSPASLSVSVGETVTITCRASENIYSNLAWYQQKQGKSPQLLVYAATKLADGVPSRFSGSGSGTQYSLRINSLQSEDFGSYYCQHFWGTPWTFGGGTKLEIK
657
